Target Of Assay: T1, rat NPRA (rat, UniProt P18910 29-1057)
T1 sequence (looked up): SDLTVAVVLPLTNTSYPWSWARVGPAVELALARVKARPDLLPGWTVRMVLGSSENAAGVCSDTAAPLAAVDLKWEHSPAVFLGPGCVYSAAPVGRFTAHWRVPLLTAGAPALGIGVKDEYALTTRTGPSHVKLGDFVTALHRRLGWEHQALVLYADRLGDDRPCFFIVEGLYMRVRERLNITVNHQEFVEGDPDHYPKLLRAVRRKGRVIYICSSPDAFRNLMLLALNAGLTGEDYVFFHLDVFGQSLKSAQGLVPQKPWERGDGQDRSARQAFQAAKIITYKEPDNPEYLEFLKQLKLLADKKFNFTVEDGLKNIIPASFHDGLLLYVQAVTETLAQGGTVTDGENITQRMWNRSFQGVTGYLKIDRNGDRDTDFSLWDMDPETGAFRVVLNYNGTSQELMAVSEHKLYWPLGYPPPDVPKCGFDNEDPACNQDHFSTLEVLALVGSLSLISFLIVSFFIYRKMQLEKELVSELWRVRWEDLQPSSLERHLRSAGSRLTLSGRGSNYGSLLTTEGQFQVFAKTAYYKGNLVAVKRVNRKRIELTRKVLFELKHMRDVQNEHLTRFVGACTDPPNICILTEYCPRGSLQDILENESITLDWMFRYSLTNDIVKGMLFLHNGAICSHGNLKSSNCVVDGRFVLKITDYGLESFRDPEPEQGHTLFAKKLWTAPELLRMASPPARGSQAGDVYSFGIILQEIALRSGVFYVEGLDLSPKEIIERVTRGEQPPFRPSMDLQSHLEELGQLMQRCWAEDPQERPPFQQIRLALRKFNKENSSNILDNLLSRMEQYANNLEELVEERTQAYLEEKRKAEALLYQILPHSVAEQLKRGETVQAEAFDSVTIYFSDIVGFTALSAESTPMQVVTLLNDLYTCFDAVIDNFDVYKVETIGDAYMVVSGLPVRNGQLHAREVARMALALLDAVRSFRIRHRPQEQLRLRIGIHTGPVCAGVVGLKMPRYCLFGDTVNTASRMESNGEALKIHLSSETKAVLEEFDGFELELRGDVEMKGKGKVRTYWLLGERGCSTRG
Protocol: cell-based or functional assay
Numbered stars: 1 amine (or outer) side, 2 acyl side, 3 side chain; on linkers, the order of the positions; unused ones are H or OH. Bridge positions count the residues as written; N and C are the ends. Square brackets hold non-standard residues; d marks the D form. * marks the point of attachment. thioacetal = thioacetal linkage between two cysteines (intrachain bond at the bracketed Cys); C20 diacid = O=C(O)CCCCCCCCCCCCCCCCCCC(=O)*; γGlu = O=C(O)[C@H](CCC(=O)[*:2])N[*:1]; 4Pal = N[C@@H](Cc1ccncc1)C(=O)O; βAla = NCCC(=O)O
# label = yes if cGMP Assay (EC50, pM) w/Casein < 7000 pM else no

Binder	Answer Label
SXRRSSCFGGRIDRIGHYSGLGCPSFRHGGKSSGAPPPS (HOOC-(CH2)18-CO-(γGlu)-EKEKEKG-(AEEA)6-S-4Pal-RRSS[CFGGRIDRIGHYSGLGC]PSFRHGGKSSGAPPPS-NH2; thioacetal linkage between the bracketed Cys) [Example 92]	no
{C20 diacid}-[γGlu]EKEKEKGS[4Pal]RRSSCFGGRIDRIGHQSGLGCPSFRHGGKSSGAPPPS-NH2 (bridge 15-31 via thioacetal) [Example 67]	no
{C20 diacid}-[γGlu]EKEKEKGEK[βAla]RSSCFGGRIDRIGHYSGLGCPSFRHGGPSSGAPPPS-NH2 (disulfide 15-31) [Example 54]	yes
SXRRSSCFGGRIDRIGHQSGLGCPSFRHGGKSSGAPPPS (HOOC-(CH2)18-CO-(γGlu)-EKEKEKG-PEG24-S-4Pal-RRSS[CFGGRIDRIGHQSGLGC]PSFRHGGKSSGAPPPS-NH2; thioacetal linkage between the bracketed Cys) [Example 75]	no
{C20 diacid}-[γGlu]EKEKEKGS[4Pal]KRSSCFGGKIDRIGHQSGLGCPSFRHKITAKEDE-NH2 (disulfide 15-31) [Example 34]	yes
{C20 diacid}-[γGlu]EKEKEKGS[4Pal]RRSSCFGGRIGRIGHQSGLGCPSFRHGGPSSGAPPPS-NH2 (disulfide 15-31) [Example 29]	no
XEKEKEKGSXKRSSCFGGKIDRIGHQSGLGCPSFRHGGPSSGAPPPS (HOOC-(CH2)18-CO-(γGlu)-EKEKEKGS-4Pal-KRSS[CFGGKIDRIGHQSGLGC]PSFRHGGPSSGAPPPS-NH2; disulfide linkage between the bracketed Cys) [Example 30]	yes
EKXRSSCFGKRIDRIGHQSGLGCPSFRHGGKSSGAPPPS (HOOC-(CH2)18-CO-(γGlu)-EKEKEKG-PEG24-EK-βAla-RSS[CFGKRIDRIGHQSGLGC]PSFRHGGKSSGAPPPS-NH2; thioacetal linkage between the bracketed Cys) [Example 3]	no
SXRRSSCFGGRIDRIGHYSGLGCPSFRHGGKSSGAPPPS (HOOC-(CH2)18-CO-(γGlu)-EKEKEKG-PEG24-S-4Pal-RRSS[CFGGRIDRIGHYSGLGC]PSFRHGGKSSGAPPPS-NH2; thioacetal linkage between the bracketed Cys) [Example 95]	no
